# credit: patent US9669036B2

# System: latent HSV-1(F)
# Format: cell-based
# applied.conditions: ganglionic organ cultures in medium containing NGF and EGF; 24 h after excision; three concentrations tested
measured.quantity: Significant Activation of Latent HSV

Study these solved cases before continuing.
{"chemical.smiles": "CS(=O)(=O)N1CCN(Cc2cc3nc(-c4cccc5[nH]ncc45)nc(N4CCOCC4)c3s2)CC1", "measured.quantity": "Significant Activation of Latent HSV", "recorded.result": "Yes"}
{"chemical.smiles": "Cc1sc2c(c1C)C(c1ccc(Cl)cc1)=N[C@@H](CC(=O)OC(C)(C)C)c1nnc(C)n1-2", "measured.quantity": "Significant Activation of Latent HSV", "recorded.result": "No"}
{"chemical.smiles": "Cn1c(=O)n(-c2ccc(C(C)(C)C#N)cc2)c2c3cc(-c4cnc5ccccc5c4)ccc3ncc21", "measured.quantity": "Significant Activation of Latent HSV", "recorded.result": "Yes"}
{"chemical.smiles": "COc1cc2c(NC3CCN(C(C)C)CC3)nc(C3CCCCC3)nc2cc1OCCCN1CCCC1", "measured.quantity": "Significant Activation of Latent HSV", "recorded.result": "No"}
{"chemical.smiles": "O=C(Nc1ccc2c(O)cc(S(=O)(=O)O)cc2c1)Nc1ccc2c(O)cc(S(=O)(=O)O)cc2c1", "measured.quantity": "Significant Activation of Latent HSV", "recorded.result": "No"}

Data request: GET /values?readout=Significant Activation of Latent HSV&item= NC1(c2ccc(-c3nc4ccn5c(=O)[nH]nc5c4cc3-c3ccccc3)cc2)CCC1
Data returned: Yes

Data request: GET /values?readout=Significant Activation of Latent HSV&item= C[C@@H]1CCN(C(=O)CC#N)C[C@@H]1N(C)c1ncnc2[nH]ccc12
Data returned: No
